The reader will find reported GI50 values listed item by item below.
Tested on: SK-MEL-2 melanoma
Assay: NCI tumour cell line growth inhibition, 48 h

{"MOLECULE": "CCCCCCCCCCCCC(O)C1CCC(C(O)CCCCC(O)CCCCCC2CC(CC(C)=O)C(=O)O2)O1 (configuration not stated)", "EXPERIMENTAL_TARGET": "SK-MEL-2 melanoma", "GI50": "1.36 µM"}
{"MOLECULE": "Nc1nc2ccc(CNc3ccc(C(=O)NC(CC(=O)O)C(=O)O)cc3)cc2c(=O)[nH]1 (configuration not stated)", "EXPERIMENTAL_TARGET": "SK-MEL-2 melanoma", "GI50": "> 100 µM"}
{"MOLECULE": "COc1ccc(N=Nc2ccc(O)c(=O)cc2)cc1", "EXPERIMENTAL_TARGET": "SK-MEL-2 melanoma", "GI50": "5.01 µM"}
{"MOLECULE": "O=C1NC(=Nc2ccc(O)cc2)S/C1=C\\c1cccs1", "EXPERIMENTAL_TARGET": "SK-MEL-2 melanoma", "GI50": "> 100 µM"}
{"MOLECULE": "NC(=O)c1c[nH]c2ncnc(N)c12", "EXPERIMENTAL_TARGET": "SK-MEL-2 melanoma", "GI50": "47.2 µM"}
{"MOLECULE": "C=C(C)[C@@H]1CC[C@]2(C(=O)O)CC[C@]3(C)[C@H](CC[C@@H]4[C@@]5(C)C/C(=C/c6ccco6)C(=O)C(C)(C)[C@@H]5CC[C@]43C)[C@@H]12", "EXPERIMENTAL_TARGET": "SK-MEL-2 melanoma", "GI50": "2.75 µM"}
{"MOLECULE": "CC(C)c1cnc(-c2cc(Cl)ccc2F)cc1Nc1ccncc1C(=O)NC(CO)CO", "EXPERIMENTAL_TARGET": "SK-MEL-2 melanoma", "GI50": "18 µM"}

Every entry's value here was drawn from PubChem BioAssay (NCI).
